biological target: KDM4A (Homo sapiens); construct: encoding human KDM4A residues 1–350 with a GST-6xHis tag at the N-terminal; GST-6xHis (followed by TEV cleavage site) (N, cleaved yes); made in house; host or cells: T7 Express E. coli; test: Bio-layer interferometry (BLI) binding to biotinylated KDM4A; conditions: ligand efficiency score, method of ref 58
Sequence (O75164 1-350): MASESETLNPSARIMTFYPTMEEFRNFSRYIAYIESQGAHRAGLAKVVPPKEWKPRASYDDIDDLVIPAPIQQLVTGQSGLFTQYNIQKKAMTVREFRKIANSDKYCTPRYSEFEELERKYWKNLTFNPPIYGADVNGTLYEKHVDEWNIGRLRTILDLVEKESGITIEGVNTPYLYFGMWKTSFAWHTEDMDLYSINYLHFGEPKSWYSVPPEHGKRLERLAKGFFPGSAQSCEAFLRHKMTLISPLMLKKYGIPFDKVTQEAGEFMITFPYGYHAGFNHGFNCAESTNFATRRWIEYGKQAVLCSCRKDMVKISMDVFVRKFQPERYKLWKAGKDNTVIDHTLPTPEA
// boundary case: LE equal to 0.4 maps to not met; strictly smaller maps to met

[[record]]
input_smiles = "CCCNC(=O)c1cc(C(=O)O)ccn1"
test_system = "KDM4A (Homo sapiens)"
classification = "not met"

[[record]]
input_smiles = "O=C(O)c1ccnc(C(=O)NCc2ccccc2)c1"
test_system = "KDM4A (Homo sapiens)"
classification = "met"

[[record]]
input_smiles = "CNC(=O)c1cc(C(=O)O)ccn1"
test_system = "KDM4A (Homo sapiens)"
classification = "not met"

[[record]]
input_smiles = "COC(=O)c1ccnc(C(=O)NCc2nc3ccccc3n2C)c1"
test_system = "KDM4A (Homo sapiens)"
classification = "met"

